Source of measurements: PubChem BioAssay AID1845208

Recorded measurements of viability, T/C, one per entry
tested on: NCI-H196 SCLC complex tumor spheroid viability; assay: Anticancer human tumor NCI-H196 cell line growth inhibition; conditions: second compound 0.3 µM; first compound 10 µM; stronger effect = lower value

Below, 2 compounds whose answers are already recorded.
compound	quantity-kind	result
CC1COCCN1c1cc(-c2ccnn2C)c2ccnc(-c3ccn[nH]3)c2n1 (stereo unspecified) + CC[C@@]1(O)C(=O)OCc2c1cc1n(c2=O)Cc2cc3c(CN(C)C)c(O)ccc3nc2-1	viability, T/C	38.5%
CC(C)n1c(=O)n(C)c2cnc3cc(F)c(-c4ccc(OCCCN5CCCCC5)nc4)cc3c21 + CC[C@@]1(O)C(=O)OCc2c1cc1n(c2=O)Cc2cc3c(CN(C)C)c(O)ccc3nc2-1	viability, T/C	71.4%

Which viability, T/C is listed for Cc1cc(C)c(CNC(=O)c2cc(-c3ccc(CN4CCOCC4)cc3)cc3c2cnn3C2CCCC2)c(=O)[nH]1 + CC[C@@]1(O)C(=O)OCc2c1cc1n(c2=O)Cc2cc3c(CN(C)C)c(O)ccc3nc2-1 ?
86.9%

Which viability, T/C is listed for [2H]c1nc(C)nc([2H])c1-c1cc(NC[C@@H](C)c2cccc3c(C(=O)NC)ccnc23)ncn1 + CC[C@@]1(O)C(=O)OCc2c1cc1n(c2=O)Cc2cc3c(CN(C)C)c(O)ccc3nc2-1 ?
100%

Which viability, T/C is listed for COc1cc(C)[nH]c(=O)c1CN1CCc2c(Cl)cc(C(OC)C3COC3)c(Cl)c2C1=O (stereo unspecified) + CC[C@@]1(O)C(=O)OCc2c1cc1n(c2=O)Cc2cc3c(CN(C)C)c(O)ccc3nc2-1 ?
88.7%

Which viability, T/C is listed for COc1ccc([C@@H](O)c2cc(-c3ncnc4cc(N5CCOCC5)ccc34)c(F)cc2Cl)nn1 + CC[C@@]1(O)C(=O)OCc2c1cc1n(c2=O)Cc2cc3c(CN(C)C)c(O)ccc3nc2-1 ?
37.1%

----------
Recorded measurements of viability, T/C, one per entry
System: NCI-H196 SCLC complex tumor spheroid viability
Assay: Anticancer human tumor NCI-H196 cell line growth inhibition
Details: second compound 1 µM; first compound 0.1 µM; stronger effect = lower value
Experimental: Multicellular complex tumor spheroid response to DNA repair inhibitors in combination with DNA-damaging drugs This study explores the anticancer activities of DNA-damaging drugs and inhibitors of DNA damage repair, both as single agents and in combinations. […] Twenty-six patient-derived or established malignant cell lines were evaluated representing sarcoma, melanoma, small cell lung cancer (SCLC), non-small cell lung cancer (NSCLC), as well as bladder, ovarian and pancreatic cancers. […]

molecule	tested-on	viability, T/C
CC(C)n1c(=O)n(C)c2cnc3cc(F)c(-c4ccc(OCCCN5CCCCC5)nc4)cc3c21 + Cn1nnc2c(C(N)=O)ncn2c1=O	NCI-H196 SCLC complex tumor spheroid viability	102%
COc1ccc([C@@H](O)c2cc(-c3ncnc4cc(N5CCOCC5)ccc34)c(F)cc2Cl)nn1 + Cn1nnc2c(C(N)=O)ncn2c1=O	NCI-H196 SCLC complex tumor spheroid viability	97.1%
[2H]c1nc(C)nc([2H])c1-c1cc(NC[C@@H](C)c2cccc3c(C(=O)NC)ccnc23)ncn1 + Cn1nnc2c(C(N)=O)ncn2c1=O	NCI-H196 SCLC complex tumor spheroid viability	96.6%
COc1cc(C)[nH]c(=O)c1CN1CCc2c(Cl)cc(C(OC)C3COC3)c(Cl)c2C1=O (stereo unspecified) + Cn1nnc2c(C(N)=O)ncn2c1=O	NCI-H196 SCLC complex tumor spheroid viability	103%
Cc1cc(C)c(CNC(=O)c2cc(-c3ccc(CN4CCOCC4)cc3)cc3c2cnn3C2CCCC2)c(=O)[nH]1 + Cn1nnc2c(C(N)=O)ncn2c1=O	NCI-H196 SCLC complex tumor spheroid viability	102%

Which viability, T/C is listed for CC1COCCN1c1cc(-c2ccnn2C)c2ccnc(-c3ccn[nH]3)c2n1 (stereo unspecified) + Cn1nnc2c(C(N)=O)ncn2c1=O ?
77.5%

----------
Recorded measurements of viability, T/C, one per entry
tested on: NCI-H196 SCLC complex tumor spheroid viability; assay: Anticancer human tumor NCI-H196 cell line growth inhibition; conditions: second compound 0.03 µM; first compound 0.0316 µM; stronger effect = lower value;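 also: spheroids exposed to compounds for 7 days before readout; 100% = DMSO vehicle control wells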
Provide the reading as a plain figure in %.

Below, 5 molecules whose answers are already recorded.
molecule	tested-on	quantity-kind	measured-number
CC1COCCN1c1cc(-c2ccnn2C)c2ccnc(-c3ccn[nH]3)c2n1 (stereo unspecified) + CC[C@@]1(O)C(=O)OCc2c1cc1n(c2=O)Cc2cc3c(CN(C)C)c(O)ccc3nc2-1	NCI-H196 SCLC complex tumor spheroid viability	viability, T/C	70.8
CC(C)n1c(=O)n(C)c2cnc3cc(F)c(-c4ccc(OCCCN5CCCCC5)nc4)cc3c21 + CC[C@@]1(O)C(=O)OCc2c1cc1n(c2=O)Cc2cc3c(CN(C)C)c(O)ccc3nc2-1	NCI-H196 SCLC complex tumor spheroid viability	viability, T/C	102
COc1cc(C)[nH]c(=O)c1CN1CCc2c(Cl)cc(C(OC)C3COC3)c(Cl)c2C1=O (stereo unspecified) + CC[C@@]1(O)C(=O)OCc2c1cc1n(c2=O)Cc2cc3c(CN(C)C)c(O)ccc3nc2-1	NCI-H196 SCLC complex tumor spheroid viability	viability, T/C	99.3
COc1ccc([C@@H](O)c2cc(-c3ncnc4cc(N5CCOCC5)ccc34)c(F)cc2Cl)nn1 + CC[C@@]1(O)C(=O)OCc2c1cc1n(c2=O)Cc2cc3c(CN(C)C)c(O)ccc3nc2-1	NCI-H196 SCLC complex tumor spheroid viability	viability, T/C	93.5
Cc1cc(C)c(CNC(=O)c2cc(-c3ccc(CN4CCOCC4)cc3)cc3c2cnn3C2CCCC2)c(=O)[nH]1 + CC[C@@]1(O)C(=O)OCc2c1cc1n(c2=O)Cc2cc3c(CN(C)C)c(O)ccc3nc2-1	NCI-H196 SCLC complex tumor spheroid viability	viability, T/C	91.8

Next molecule, please.
Which viability, T/C is listed for [2H]c1nc(C)nc([2H])c1-c1cc(NC[C@@H](C)c2cccc3c(C(=O)NC)ccnc23)ncn1 + CC[C@@]1(O)C(=O)OCc2c1cc1n(c2=O)Cc2cc3c(CN(C)C)c(O)ccc3nc2-1 ?
96.8

----------
test system: NCI-H196 SCLC complex tumor spheroid viability; assay: Anticancer human tumor NCI-H196 cell line growth inhibition; details: second compound 10 µM; first compound 0.0949 µM; stronger effect = lower value;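 also: spheroids exposed to compounds for 7 days before readout; 100% = DMSO vehicle control wells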
quantity-kind: viability, T/C (%)
Provide the reading as a plain figure in %.

Below, 3 compounds whose answers are already recorded.
compound	measured-number
Cn1ncnc1[C@H]1c2n[nH]c(=O)c3cc(F)cc(c23)N[C@@H]1c1ccc(F)cc1 + Cn1nnc2c(C(N)=O)ncn2c1=O	104
O=C(c1cc(Cc2n[nH]c(=O)c3ccccc23)ccc1F)N1CCN(C(=O)C2CC2)CC1 + Cn1nnc2c(C(N)=O)ncn2c1=O	99.6
CNCc1ccc(-c2cc(-c3nc(-c4ccc(S(=O)(=O)C(C)C)cc4)cnc3N)on2)cc1 + Cn1nnc2c(C(N)=O)ncn2c1=O	105

Next compound, please.
Which viability, T/C is listed for Cc1sc2c(c1C)C(c1ccc(Cl)cc1)=NC(CC(=O)Nc1ccc(O)cc1)c1nnc(C)n1-2 (centres undefined) + Cn1nnc2c(C(N)=O)ncn2c1=O ?
91.6

----------
system: NCI-H196 SCLC complex tumor spheroid viability; assay: Anticancer human tumor NCI-H196 cell line growth inhibition; details: second compound 31.6 µM; first compound 0.316 µM; stronger effect = lower value;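 also: spheroids exposed to compounds for 7 days before readout; 100% = DMSO vehicle control wells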
quantity-kind: viability, T/C (%)
Provide the reading as a plain figure in %.

compound	viability, T/C [%]
[2H]c1nc(C)nc([2H])c1-c1cc(NC[C@@H](C)c2cccc3c(C(=O)NC)ccnc23)ncn1 + Cn1nnc2c(C(N)=O)ncn2c1=O	108
CC(C)n1c(=O)n(C)c2cnc3cc(F)c(-c4ccc(OCCCN5CCCCC5)nc4)cc3c21 + Cn1nnc2c(C(N)=O)ncn2c1=O	101
COc1cc(C)[nH]c(=O)c1CN1CCc2c(Cl)cc(C(OC)C3COC3)c(Cl)c2C1=O (stereo unspecified) + Cn1nnc2c(C(N)=O)ncn2c1=O	101
CC1COCCN1c1cc(-c2ccnn2C)c2ccnc(-c3ccn[nH]3)c2n1 (stereo unspecified) + Cn1nnc2c(C(N)=O)ncn2c1=O	71.4
Cc1cc(C)c(CNC(=O)c2cc(-c3ccc(CN4CCOCC4)cc3)cc3c2cnn3C2CCCC2)c(=O)[nH]1 + Cn1nnc2c(C(N)=O)ncn2c1=O	108

Next compound, please.
Which viability, T/C is listed for COc1ccc([C@@H](O)c2cc(-c3ncnc4cc(N5CCOCC5)ccc34)c(F)cc2Cl)nn1 + Cn1nnc2c(C(N)=O)ncn2c1=O ?
92.5

----------
tested on: NCI-H196 SCLC complex tumor spheroid viability; assay: Anticancer human tumor NCI-H196 cell line growth inhibition; settings: second compound 94.9 pM; first compound 0.3 µM; stronger effect = lower value;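 also: spheroids exposed to compounds for 7 days before readout; 100% = DMSO vehicle control wells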
Recorded measurements of viability, T/C, one per entry
Provide the reading as a plain figure in %.

Which viability, T/C is listed for Cc1sc2c(c1C)C(c1ccc(Cl)cc1)=NC(CC(=O)Nc1ccc(O)cc1)c1nnc(C)n1-2 (centres undefined) + COc1cc2c(cc1O)CCNC21CSC2c3c(OC(C)=O)c(C)c4c(c3C(COC1=O)N1C(O)C3Cc5cc(C)c(OC)c(O)c5C(C21)N3C)OCO4 ?
80.1

Which viability, T/C is listed for CNCc1ccc(-c2cc(-c3nc(-c4ccc(S(=O)(=O)C(C)C)cc4)cnc3N)on2)cc1 + COc1cc2c(cc1O)CCNC21CSC2c3c(OC(C)=O)c(C)c4c(c3C(COC1=O)N1C(O)C3Cc5cc(C)c(OC)c(O)c5C(C21)N3C)OCO4 ?
107

Which viability, T/C is listed for O=C(c1cc(Cc2n[nH]c(=O)c3ccccc23)ccc1F)N1CCN(C(=O)C2CC2)CC1 + COc1cc2c(cc1O)CCNC21CSC2c3c(OC(C)=O)c(C)c4c(c3C(COC1=O)N1C(O)C3Cc5cc(C)c(OC)c(O)c5C(C21)N3C)OCO4 ?
102

Which viability, T/C is listed for Cn1ncnc1[C@H]1c2n[nH]c(=O)c3cc(F)cc(c23)N[C@@H]1c1ccc(F)cc1 + COc1cc2c(cc1O)CCNC21CSC2c3c(OC(C)=O)c(C)c4c(c3C(COC1=O)N1C(O)C3Cc5cc(C)c(OC)c(O)c5C(C21)N3C)OCO4 ?
98.6
